Experiment: pharmacokinetics of GA metabolites in EHBRs orally treated with GA
Type: in vivo, Eisai hyperbilirubinuria rats (EHBRs)
Conditions: Eisai hyperbilirubinuria rat (EHBR), rat, plasma, 200 mg/kg; male EHBRs, GA 0.20 g/kg oral; read-out: plasma concentration 12 h after oral administration of GA
Give concentration at 12 h for every item shown.
Give bare numbers, in µM.

CC1(C)[C@@H](O)CC[C@]2(C)[C@H]3C(=O)C=C4[C@@H]5C[C@@](C)(C(=O)O)CC[C@]5(C)CC[C@@]4(C)[C@]3(C)CC[C@@H]12 [GA, glycyrrhetinic acid, reference compound] : 2.6
CC1(C)[C@@H](OS(=O)(=O)O)CC[C@]2(C)[C@H]3C(=O)C=C4[C@@H]5C[C@@](C)(C(=O)O)CC[C@]5(C)CC[C@@]4(C)[C@]3(C)CC[C@@H]12 [Compound 3, 18β-glycyrrhetyl-3-O-sulfate] : 2.2
CC1(C)[C@@H](OS(=O)(=O)O)CC[C@]2(C)[C@H]3C(=O)C=C4[C@@H]5C[C@@](C)(C(=O)O[C@@H]6O[C@H](C(=O)O)[C@@H](O)[C@H](O)[C@H]6O)C[C@H](O)[C@]5(C)CC[C@@]4(C)[C@]3(C)CC[C@@H]12 : 177
CC1(C)[C@@H](OS(=O)(=O)O)CC[C@]2(C)[C@H]3C(=O)C=C4[C@@H]5C[C@@](C)(C(=O)O)C[C@H](O)[C@]5(C)CC[C@@]4(C)[C@]3(C)CC[C@@H]12 [Compound 2, 22α-hydroxy-18β-glycyrrhetyl-3-O-sulfate] : 8.2
CC1(C)[C@@H](OS(=O)(=O)O)CC[C@]2(C)[C@H]3C(=O)C=C4[C@@H]5C[C@@](C)(C(=O)O[C@@H]6O[C@H](C(=O)O)[C@@H](O)[C@H](O)[C@H]6O)CC[C@]5(C)CC[C@@]4(C)[C@]3(C)CC[C@@H]12 : 237

Alright, here's another molecule for you.
# concentration at 12 h (molecule: CC1(C)[C@@H](O[C@@H]2O[C@H](C(=O)O)[C@@H](O)[C@H](O)[C@H]2O)CC[C@]2(C)[C@H]3C(=O)C=C4[C@@H]5C[C@@](C)(C(=O)O)CC[C@]5(C)CC[C@@]4(C)[C@]3(C)CC[C@@H]12 [Compound 3MGA, 18β-glycyrrhetyl-3-O-glucuronide, reference compound] ) is 1.6

Attribution: paper PMC8165744
